Values compiled from patent US20260049134A1.

Target: T1, GARS, endogenous in H929 multiple myeloma cells (human, UniProt P41250 37-739, limits assumed)
T1 construct: Native protein pulled down from H929 lysates; also called Glycyl-tRNA synthetase; GlyRS
T1 sequence: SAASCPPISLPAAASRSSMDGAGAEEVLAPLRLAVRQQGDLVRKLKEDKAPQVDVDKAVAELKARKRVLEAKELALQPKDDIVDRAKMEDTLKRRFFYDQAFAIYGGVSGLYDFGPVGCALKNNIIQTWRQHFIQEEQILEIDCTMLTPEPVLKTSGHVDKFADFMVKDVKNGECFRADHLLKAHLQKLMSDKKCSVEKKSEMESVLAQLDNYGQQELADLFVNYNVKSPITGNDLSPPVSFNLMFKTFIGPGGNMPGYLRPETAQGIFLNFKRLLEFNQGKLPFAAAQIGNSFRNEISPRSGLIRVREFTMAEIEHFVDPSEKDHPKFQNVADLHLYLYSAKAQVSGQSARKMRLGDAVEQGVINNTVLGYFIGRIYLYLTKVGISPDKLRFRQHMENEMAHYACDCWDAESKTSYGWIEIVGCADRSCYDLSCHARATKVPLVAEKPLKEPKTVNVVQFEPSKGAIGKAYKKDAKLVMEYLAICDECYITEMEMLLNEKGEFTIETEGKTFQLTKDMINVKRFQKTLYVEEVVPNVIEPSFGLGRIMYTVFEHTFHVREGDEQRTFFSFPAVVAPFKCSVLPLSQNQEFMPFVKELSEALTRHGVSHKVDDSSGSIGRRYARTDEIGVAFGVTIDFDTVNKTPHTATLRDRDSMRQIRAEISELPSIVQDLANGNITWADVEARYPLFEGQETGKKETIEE
Assay: flow cytometry, H929 + ICAM1 siRNA; None 455; surface target GARS putative
Task for the reader: assign each of the following binders its reported mAb binding (MFI).
Lab note: record the figure alone, no unit after it.

input: Can you look up the measured mAb binding (MFI) of HW-8 chimeric rabbit-human IgG1 LA/LA/PG (antibody, V domains shown, Fc-silenced (L234A/L235A/P329G) IgG1, kappa; Alexa Fluor 647-labeled in single-step flow cytometry; Cluster C-45) VH: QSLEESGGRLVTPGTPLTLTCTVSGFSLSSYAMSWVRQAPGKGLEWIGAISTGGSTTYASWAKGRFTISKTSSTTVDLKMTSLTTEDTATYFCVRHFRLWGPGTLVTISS VL: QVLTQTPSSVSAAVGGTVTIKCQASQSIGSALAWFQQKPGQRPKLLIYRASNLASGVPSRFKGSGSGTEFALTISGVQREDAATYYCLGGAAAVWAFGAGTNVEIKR for me?
output: 11400

input: Can you look up the measured mAb binding (MFI) of HW-56 chimeric rabbit-human IgG1 LA/LA/PG (antibody, V domains shown, Fc-silenced (L234A/L235A/P329G) IgG1, kappa; Alexa Fluor 647-labeled in single-step flow cytometry; Cluster C-45) VH: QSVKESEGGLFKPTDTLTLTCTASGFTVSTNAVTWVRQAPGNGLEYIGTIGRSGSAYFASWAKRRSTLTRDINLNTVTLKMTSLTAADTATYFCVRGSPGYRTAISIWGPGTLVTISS VL: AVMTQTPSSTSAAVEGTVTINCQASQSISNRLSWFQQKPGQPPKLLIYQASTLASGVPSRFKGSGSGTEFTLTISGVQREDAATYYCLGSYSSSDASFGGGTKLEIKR for me?
output: 497000
